Give melting point for every item shown.

I have this compound here, `COc1ccc(/C(C)=N/OCc2cccc(F)c2)cc1F` , and I need its recorded melting point. 67 °C

I have this compound here, `COc1ccc(/C(C)=N/OCc2ccc([N+](=O)[O-])cc2)cc1OC(C)C` , and I need its recorded melting point. 44.5 to 46.1 °C

I have this compound here, `COC(=O)c1ccc(CO/N=C(\C)c2ccc(OC)c(O)c2)cc1` , and I need its recorded melting point. 97.7 to 98.7 °C

I have this compound here, `COc1ccc(/C(C)=N/OCc2ccc([N+](=O)[O-])cc2)cc1O` , and I need its recorded melting point. 105 to 105.7 °C

I have this compound here, `C/C(=N\OCc1ccc([N+](=O)[O-])cc1)c1ccc2c(c1)OCO2` , and I need its recorded melting point. 158.7 to 160.5 °C

I have this compound here, `COc1ccc(/C(C)=N/OCc2ccc([N+](=O)[O-])cc2)cc1` , and I need its recorded melting point. 88.2 to 89.5 °C

I have this compound here, `COc1cc(-c2ccc(NC(=O)OC(C)(C)C)cc2)c(/C(C)=N/OCc2ccc([N+](=O)[O-])cc2)cc1O` , and I need its recorded melting point. 91 to 96.8 °C

I have this compound here, `C/C(=N\OCc1ccc([N+](=O)[O-])cc1)c1ccc(O)c(F)c1` , and I need its recorded melting point. 93 to 94 °C

I have this compound here, `C/C(=N\OCc1ccc([N+](=O)[O-])cc1)c1cccc(O)c1` , and I need its recorded melting point. 123.6 to 125.3 °C
